Attribution: ChEMBL document CHEMBL5303573

experimental_context: segatella copri, 12 h, 2 µM
Description: The drug is tested on Prevotella copri strain: DSM18205 for biotransformation. The drug concentrations were measured before and after a 12-h incubation by liquid-chromatography-coupled mass spectrometry (LC–MS)

compound | Bacterial Biotransformation
CCCCC(=O)O[C@]1(C(=O)CO)[C@@H](C)C[C@H]2[C@@H]3CCC4=CC(=O)C=C[C@]4(C)[C@@]3(F)[C@@H](O)C[C@@]21C [BETAMETHASONE VALERATE] | Compound NOT metabolized
CCOc1cc(CC(=O)N[C@@H](CC(C)C)c2ccccc2N2CCCCC2)ccc1C(=O)O [REPAGLINIDE] | Compound NOT metabolized
CN(C)CCc1c[nH]c2ccc(CS(=O)(=O)N3CCCC3)cc12 | Compound NOT metabolized

---

measurement_description: The drug is tested on Bacteroides uniformis strain: ATCC8492 for biotransformation. The drug concentrations were measured before and after a 12-h incubation by liquid-chromatography-coupled mass spectrometry (LC–MS)
experimental_context: 2 µM
readout_kind: Bacterial Biotransformation

Some solved cases for reference:
compound | Bacterial Biotransformation
COc1c(C)c2c(c(O)c1C/C=C(\C)CCC(=O)OCCN1CCOCC1)C(=O)OC2 [MYCOPHENOLATE MOFETIL] | Compound metabolized
CN1CCC(=C2c3ccccc3CC(=O)c3sccc32)CC1.O=C(O)/C=C/C(=O)O [KETOTIFEN FUMARATE] | Compound NOT metabolized
C[C@H]1O[C@@H](O[C@H]2[C@@H](O)C[C@H](O[C@H]3[C@@H](O)C[C@H](O[C@H]4CC[C@@]5(C)[C@H](CC[C@@H]6[C@@H]5C[C@@H](O)[C@]5(C)[C@@H](C7=CC(=O)OC7)CC[C@]65O)C4)O[C@@H]3C)O[C@@H]2C)C[C@H](O)[C@@H]1O | Compound metabolized
CCCN1C[C@H](CSC)C[C@@H]2c3cccc4[nH]cc(c34)C[C@H]21.CS(=O)(=O)O [PERGOLIDE MESYLATE] | Compound NOT metabolized
CN(C)CCOC(C)(c1ccccc1)c1ccccn1.O=C(O)CCC(=O)O (stereo not drawn) [DOXYLAMINE SUCCINATE] | Compound NOT metabolized
CC(C)(C)NCC(O)COc1cccc2c1CC(O)C(O)C2 (stereo not drawn) | Compound NOT metabolized

Quick one: Bacterial Biotransformation for COc1ccc2c(c1)c(CC(=O)O)c(C)n2C(=O)c1ccc(Cl)cc1 ?
Compound metabolized

Quick one: Bacterial Biotransformation for COc1ccc2c(c1OC)C(=O)O[C@@H]2[C@H]1c2c(cc3c(c2OC)OCO3)CCN1C ?
Compound metabolized

---

measurement_description: The drug is tested on Enterococcus faecalis strain: V583 for biotransformation. The drug concentrations were measured before and after a 12-h incubation by liquid-chromatography-coupled mass spectrometry (LC–MS)
experimental_context: 2 µM
readout_kind: Bacterial Biotransformation

Some solved cases for reference:
compound | Bacterial Biotransformation
CC(O)(CS(=O)(=O)c1ccc(F)cc1)C(=O)Nc1ccc(C#N)c(C(F)(F)F)c1 (centres undefined) [BICALUTAMIDE] | Compound NOT metabolized
O=C(CCCN1CCC(O)(c2ccc(Cl)cc2)CC1)c1ccc(F)cc1 [HALOPERIDOL] | Compound NOT metabolized
COc1ccc(CCN(C)CCCC(C#N)(c2ccc(OC)c(OC)c2)C(C)C)cc1OC (centres undefined) | Compound NOT metabolized
CN(C)CC(c1ccc(O)cc1)C1(O)CCCCC1.O=C(O)CCC(=O)O (centres undefined) [DESVENLAFAXINE SUCCINATE] | Compound NOT metabolized
CCOc1ccc2nc(S(N)(=O)=O)sc2c1 [ETHOXZOLAMIDE] | Compound metabolized

Quick one: Bacterial Biotransformation for O=C(O)COCCN1CCN(C(c2ccccc2)c2ccc(Cl)cc2)CC1 (centres undefined) [CETIRIZINE] ?
Compound NOT metabolized

Quick one: Bacterial Biotransformation for COc1c(C)c2c(c(O)c1C/C=C(\C)CCC(=O)OCCN1CCOCC1)C(=O)OC2 [MYCOPHENOLATE MOFETIL] ?
Compound metabolized

Quick one: Bacterial Biotransformation for COC(=O)[C@H]1[C@H]2C[C@@H]3c4[nH]c5cc(OC)ccc5c4CCN3C[C@H]2C[C@@H](OC(=O)c2cc(OC)c(OC)c(OC)c2)[C@@H]1OC [RESERPINE] ?
Compound NOT metabolized

Quick one: Bacterial Biotransformation for CC(C)(C)N.CCC[C@H](N[C@@H](C)C(=O)N1[C@H](C(=O)O)C[C@@H]2CCCC[C@@H]21)C(=O)OCC [PERINDOPRIL ERBUMINE] ?
Compound NOT metabolized

Quick one: Bacterial Biotransformation for NS(=O)(=O)c1cc2c(cc1Cl)N=C(CSCc1ccccc1)NS2(=O)=O [BENZTHIAZIDE] ?
Compound NOT metabolized
